system: PPARg:RXRa 90nM:30nM, anti-RXR (NR concentration 90 nM, RXRa partner concentration 30 nM); test: PBM binding z-score (relative to random genomic background probes); higher = stronger binding; sequences stand for … in GC…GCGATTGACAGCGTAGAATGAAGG
Kindly note that classification relies on PBM binding z-score with these boundaries: lo = under 0.6, mid = from 0.6 up to 2, hi = 2 and over

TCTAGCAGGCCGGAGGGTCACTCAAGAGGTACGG : mid

Query: Exercise: read the entry `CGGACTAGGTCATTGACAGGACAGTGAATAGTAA` and state which class it falls under.
Response: hi

Query: How about this sequence: `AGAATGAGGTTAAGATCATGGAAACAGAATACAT`
Response: mid

Query: Likewise for `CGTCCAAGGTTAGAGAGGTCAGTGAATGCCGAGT` ?
Response: mid

Query: `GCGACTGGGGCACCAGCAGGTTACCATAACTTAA` ?
Response: lo

----------
system: PPARg DBDmut:RXRa IVT, anti-PPARg (DBD mutation: PPARg1 K132A/R137A, NR concentration 270 nM, RXRa partner concentration 90 nM); assay: PBM binding z-score (relative to random genomic background probes); higher = stronger binding; sequences stand for … in GC…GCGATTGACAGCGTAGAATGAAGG
Quick rule for you: PBM binding z-score at 1 or higher means True, lower means False.

Before answering, review these 3 worked examples.
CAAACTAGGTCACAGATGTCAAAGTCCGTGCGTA : True
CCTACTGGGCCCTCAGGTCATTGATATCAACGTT : False
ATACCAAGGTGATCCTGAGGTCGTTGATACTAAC : False

Query: Record `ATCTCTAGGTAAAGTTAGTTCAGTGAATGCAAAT` ; criterion: PBM binding z-score no lower than 1. Met?
Response: True

Query: Let us now turn to `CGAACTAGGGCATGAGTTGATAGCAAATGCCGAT`
Response: True

Query: // next record `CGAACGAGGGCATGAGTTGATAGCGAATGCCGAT`
Response: False

Query: Same again, this time with `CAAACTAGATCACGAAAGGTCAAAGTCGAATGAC`
Response: True

Query: Also `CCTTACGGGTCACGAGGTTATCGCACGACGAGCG` ?
Response: True

Query: Ok, now `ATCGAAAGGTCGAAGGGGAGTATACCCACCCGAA`
Response: True

----------
tested on: PPARg DBDmut:RXRa IVT, anti-PPARg (DBD mutation: PPARg1 K132A/R137A, NR concentration 270 nM, RXRa partner concentration 90 nM); assay: PBM binding z-score (relative to random genomic background probes); higher = stronger binding; sequences stand for … in GC…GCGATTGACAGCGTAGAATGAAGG
Record rule met whenever PBM binding z-score is at 0.2 or higher; record rule not met when lower.

As a guide, the following entries are already answered.
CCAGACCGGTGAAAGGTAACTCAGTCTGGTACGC : rule not met
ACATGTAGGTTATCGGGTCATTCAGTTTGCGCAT : rule met

Query: Does the reported PBM binding z-score for `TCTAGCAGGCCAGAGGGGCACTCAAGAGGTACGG` fall at or above the 0.2 mark?
Response: rule not met

Query: Param item: `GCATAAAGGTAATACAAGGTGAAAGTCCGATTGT`
Response: rule met

Query: Could you do the same for `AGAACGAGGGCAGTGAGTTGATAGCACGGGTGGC` , please?
Response: rule met

Query: For `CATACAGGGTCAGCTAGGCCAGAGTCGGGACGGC` then?
Response: rule met

Query: Field entry: `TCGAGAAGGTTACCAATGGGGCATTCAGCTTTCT`
Response: rule not met

Query: What would you report for `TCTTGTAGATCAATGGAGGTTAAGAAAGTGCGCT` ?
Response: rule not met

Query: # iterate: `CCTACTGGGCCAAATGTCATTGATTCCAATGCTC`
Response: rule not met

The reported numbers originate from the supplement of paper PMC6555819.
